Data provenance: patent US10781181B2

Target: Human plasma kallikrein (Homo sapiens (Human), UniProt P03952)
Sequence (P03952 391-638): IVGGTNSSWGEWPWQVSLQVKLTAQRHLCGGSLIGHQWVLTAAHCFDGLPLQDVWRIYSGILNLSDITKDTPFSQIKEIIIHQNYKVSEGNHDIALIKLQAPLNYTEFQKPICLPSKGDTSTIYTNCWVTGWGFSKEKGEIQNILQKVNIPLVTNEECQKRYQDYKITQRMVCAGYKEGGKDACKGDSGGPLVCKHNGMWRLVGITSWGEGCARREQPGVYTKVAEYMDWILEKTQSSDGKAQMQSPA
Sequence (P03952 20-390 partner): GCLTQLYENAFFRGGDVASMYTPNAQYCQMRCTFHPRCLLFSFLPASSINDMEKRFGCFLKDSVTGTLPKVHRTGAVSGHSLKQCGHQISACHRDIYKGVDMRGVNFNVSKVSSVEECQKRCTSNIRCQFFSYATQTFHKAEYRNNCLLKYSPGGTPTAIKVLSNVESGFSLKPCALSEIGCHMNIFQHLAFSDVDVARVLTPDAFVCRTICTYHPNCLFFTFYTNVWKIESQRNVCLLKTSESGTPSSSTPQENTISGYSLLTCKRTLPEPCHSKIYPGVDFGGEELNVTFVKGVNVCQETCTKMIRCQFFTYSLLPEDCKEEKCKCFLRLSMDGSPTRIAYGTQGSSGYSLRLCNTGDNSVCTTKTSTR
Test: Determination of the IC50 for plasma kallikrein
Conditions: read-out: IC50 (human PKal)
pIC50: −log10 of the molar value.
measured_parameter: pIC50

As a guide, the following entries are already answered.
- Nc1nn(Cc2ccc(Br)cc2)cc1C(=O)NCCOc1cccc(Cl)c1 [Example 55]: 5.19
- COCc1nn(Cc2ccc(Cn3ccccc3=O)cc2)cc1C(=O)NCCOc1cc(Cl)ccc1F [Example 9]: 6.72

[1] Nc1nn(Cc2ccnc(N3CCCC3=O)c2)cc1C(=O)NCCOc1cccc(Cl)c1 [Example 94]
[2] Nc1nn(Cc2ccc(CN3CCOCC3=O)cc2)cc1C(=O)NCCOc1cccc(Cl)c1 [Example 76]
[3] Nc1nn(Cc2ccc(Cn3ccccc3=O)cc2)cc1C(=O)NCC(=O)Nc1cccc(Cl)c1 [Example 2]
[4] Nc1nn(Cc2ccc(-c3cccnc3)nc2)cc1C(=O)NCCOc1cccc(Cl)c1 [Example 97]
[5] Nc1nn(Cc2nc(-c3ccccc3)no2)cc1C(=O)NCCOc1cccc(Cl)c1 [Example 80]
Exercise: // ascending sort on recorded pIC50 Output spec: labels arranged per the requested ranking.
Key: 5, 1, 4, 2, 3
